Numbers sourced from patent US7893288B2.

Test system: Escherichia coli HB101
Assay: Disk sensitivity test (modified Kirby-Bauer), E. coli;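 further: filter disk loaded with compound in DMSO laid on an LB agar bacterial lawn, kept overnight at 37 °C, then the inhibition zone around the disk is measured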
Format: cell-based
Details: 5.7 × 10^−2 mM
OBSERVATION TYPE: Diameter of the zone of growth inhibition (mm)
Give bare numbers, in mm.

>  <COMPOUND>
Fc1c(F)c(F)c(N=C(N=C(Nc2c(F)c(F)c(F)c(F)c2F)C(F)(F)C(F)(F)C(F)(F)F)C(F)(F)C(F)(F)C(F)(F)F)c(F)c1F [[N{(C3F7)C(C6F5)N}2]H]

>  <VALUE>
8.5

$$$$
>  <COMPOUND>
Cc1cc(C)c(N=C(N=C(Nc2c(C)cc(C)cc2C)C(F)(F)C(F)(F)C(F)(F)F)C(F)(F)C(F)(F)C(F)(F)F)c(C)c1 [[N{(C3F7)C(Mes)N}2]H]

>  <VALUE>
7.0

$$$$
>  <COMPOUND>
FC(F)(F)C(F)(F)C(F)(F)C(=Nc1c(Cl)cccc1Cl)N=C(Nc1c(Cl)cccc1Cl)C(F)(F)C(F)(F)C(F)(F)F [[N{(C3F7)C(2,6-Cl2C6H3)N}2]H]

>  <VALUE>
8.0

$$$$

Query: Could you please provide reported Diameter of the zone of growth inhibition for Fc1cccc(C(F)(F)F)c1N=C(N=C([N]([Ag])c1c(F)cccc1C(F)(F)F)C(F)(F)C(F)(F)C(F)(F)F)C(F)(F)C(F)(F)C(F)(F)F [[N{(C3F7)C(2-F,6-CF3C6H3)N}2]Ag] ? Thanks!
Result: 9.0
